# Target of assay: MALT1-GS-Ub (6-His-hMALT-1 residues 339-715 fused to ubiquitin) (Homo sapiens (Human))
Measurement kind: IC50 (nM)
Unit nM implied. Number only.

molecule="C#CC1CN(C(=O)Nc2cnc(-n3nccn3)c(Cl)c2)c2cccc(Br)c2O1 (centres unmarked) [Example 20]" target_of_assay="MALT1-GS-Ub (6-His-hMALT-1 residues 339-715 fused to ubiquitin) (Homo sapiens (Human))" measured=3300
molecule="O=C(Nc1cnc(-n2nccn2)c(C(F)(F)F)c1)N1CCCc2c(-c3ncco3)cccc21 [Example 9]" target_of_assay="MALT1-GS-Ub (6-His-hMALT-1 residues 339-715 fused to ubiquitin) (Homo sapiens (Human))" measured=4600
molecule="O=C(Nc1cnc(-n2nccn2)c(Cl)c1)N1CCOc2c(Br)cncc21 [Example 21]" target_of_assay="MALT1-GS-Ub (6-His-hMALT-1 residues 339-715 fused to ubiquitin) (Homo sapiens (Human))" measured=2300
molecule="CC1(C)Cc2c(Br)cccc2N(C(=O)Nc2cnc(-n3nccn3)c(Cl)c2)C1 [Example 15]" target_of_assay="MALT1-GS-Ub (6-His-hMALT-1 residues 339-715 fused to ubiquitin) (Homo sapiens (Human))" measured=1300
molecule="O=C(Nc1cnc(-n2nccn2)c(C(F)(F)F)c1)N1CCCc2c(-c3nncs3)cccc21 [Example 14]" target_of_assay="MALT1-GS-Ub (6-His-hMALT-1 residues 339-715 fused to ubiquitin) (Homo sapiens (Human))" measured=8500
molecule="N#CC1CN(C(=O)Nc2cnc(-n3nccn3)c(C(F)(F)F)c2)c2cccc(Br)c2O1 (centres unmarked) [Example 6]" target_of_assay="MALT1-GS-Ub (6-His-hMALT-1 residues 339-715 fused to ubiquitin) (Homo sapiens (Human))" measured=700
molecule="CC1CN(C(=O)Nc2cnc(-n3nccn3)c(C(F)(F)F)c2)c2cccc(Br)c2O1 (centres unmarked) [Example 5]" target_of_assay="MALT1-GS-Ub (6-His-hMALT-1 residues 339-715 fused to ubiquitin) (Homo sapiens (Human))" measured=3300

Quick one: IC50 of CC1(C)CN(C(=O)Nc2cnc(-n3nccn3)c(Cl)c2)c2cncc(Cl)c2O1 [Example 32] ? 1800

----------
Consider molecules characterized by their IC50 with FL hMALT1 enzyme (Homo sapiens (Human), UniProt Q9UDY8).
Sequence (Q9UDY8 whole entry): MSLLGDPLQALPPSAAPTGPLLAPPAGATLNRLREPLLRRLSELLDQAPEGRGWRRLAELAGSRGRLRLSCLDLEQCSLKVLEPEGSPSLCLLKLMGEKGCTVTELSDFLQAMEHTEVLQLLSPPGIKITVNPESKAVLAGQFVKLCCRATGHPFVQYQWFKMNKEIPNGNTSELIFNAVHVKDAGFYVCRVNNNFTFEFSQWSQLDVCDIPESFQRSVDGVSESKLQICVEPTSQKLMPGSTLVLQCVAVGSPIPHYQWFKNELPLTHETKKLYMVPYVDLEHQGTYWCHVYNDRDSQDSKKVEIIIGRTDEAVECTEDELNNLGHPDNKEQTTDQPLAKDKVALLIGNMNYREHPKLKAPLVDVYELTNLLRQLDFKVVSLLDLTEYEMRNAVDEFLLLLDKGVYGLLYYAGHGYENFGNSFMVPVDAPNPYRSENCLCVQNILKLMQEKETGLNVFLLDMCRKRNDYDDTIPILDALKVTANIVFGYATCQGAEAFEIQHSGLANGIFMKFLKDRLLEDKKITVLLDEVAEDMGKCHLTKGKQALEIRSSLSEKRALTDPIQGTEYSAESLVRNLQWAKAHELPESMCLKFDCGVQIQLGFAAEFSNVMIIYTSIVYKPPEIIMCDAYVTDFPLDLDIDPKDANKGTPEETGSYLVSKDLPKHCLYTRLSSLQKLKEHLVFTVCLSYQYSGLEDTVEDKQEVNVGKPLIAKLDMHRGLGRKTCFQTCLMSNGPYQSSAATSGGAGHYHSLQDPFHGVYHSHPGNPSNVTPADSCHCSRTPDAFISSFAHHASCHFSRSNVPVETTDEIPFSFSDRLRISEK
Your answer is read as nM, so omit the unit and give the number.

Please review the entries below; each comes with its answer.
molecule=Nc1ncc2c(c1Br)OCCN2C(=O)Nc1cnc(-n2nccn2)c(Cl)c1 target_of_assay="FL hMALT1 enzyme (Homo sapiens (Human), UniProt Q9UDY8)" measured=2200
molecule="C[C@@H]1CN(C(=O)Nc2cnc(-n3nccn3)c(C(F)(F)F)c2)c2cccc(Br)c2[C@@H]1C (relative stereo)" target_of_assay="FL hMALT1 enzyme (Homo sapiens (Human), UniProt Q9UDY8)" measured=1200
molecule=C[C@@H]1CN(C(=O)Nc2cnc(-n3nccn3)c(Cl)c2)c2cncc(Br)c2N1C target_of_assay="FL hMALT1 enzyme (Homo sapiens (Human), UniProt Q9UDY8)" measured=110
molecule="Cc1ncc2c(c1C#N)OC(C(F)(F)F)CN2C(=O)Nc1cnc(C(=O)N(C)C2CC2)c(C(F)F)c1 (single isomer, unassigned)" target_of_assay="FL hMALT1 enzyme (Homo sapiens (Human), UniProt Q9UDY8)" measured=146

Reported IC50 for N#Cc1cncc2c1OC(C(F)(F)F)CN2C(=O)Nc1cnc(-n2nccn2)c(Cl)c1 (single isomer, unassigned) : what is it? 60

----------
# Target of assay: MALT1-GS-Ub (6-His-hMALT-1 residues 339-715 fused to ubiquitin) (Homo sapiens (Human), UniProt Q9UDY8)
# Sequence (Q9UDY8 other isoform, or with tags, fused parts or gaps): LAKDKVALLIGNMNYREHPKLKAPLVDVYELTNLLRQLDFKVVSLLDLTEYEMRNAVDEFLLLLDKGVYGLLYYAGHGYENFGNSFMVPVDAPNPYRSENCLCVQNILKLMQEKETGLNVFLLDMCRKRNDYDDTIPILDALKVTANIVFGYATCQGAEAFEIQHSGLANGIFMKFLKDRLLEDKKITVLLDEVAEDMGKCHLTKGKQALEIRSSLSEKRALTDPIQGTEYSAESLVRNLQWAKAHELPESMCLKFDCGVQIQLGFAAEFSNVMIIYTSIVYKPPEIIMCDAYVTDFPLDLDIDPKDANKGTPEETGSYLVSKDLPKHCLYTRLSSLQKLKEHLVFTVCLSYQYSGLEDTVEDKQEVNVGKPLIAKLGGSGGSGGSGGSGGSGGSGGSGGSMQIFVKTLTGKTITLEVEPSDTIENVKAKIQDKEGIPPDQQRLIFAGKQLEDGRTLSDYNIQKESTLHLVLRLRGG
Quick list: pIC50 per entry.
# log scale: pIC50 equals minus log10 of the concentration in mol/L

Suppose we examine the molecule O=C(Nc1cnc(-n2nccn2)c(Cl)c1)N1CC(C(F)(F)F)Oc2c(Br)cncc21 (single isomer, unassigned) [Example 39] ; what pIC50 value has been reported? 5.24

What about this molecule? CC1(C)CN(C(=O)Nc2cnc(-n3nccn3)c(Cl)c2)c2cncc(Br)c2O1 6.14

Note, next up: O=C(Nc1cnc(-n2nccn2)c(C(F)(F)F)c1)N1CCCc2c(Br)cccc21 5.49

----------
# Target of assay: MALT1-GS-Ub (6-His-hMALT-1 residues 339-715 fused to ubiquitin) (Homo sapiens (Human), UniProt Q9UDY8)
IC50 strictly less than 4 µM = 1.0. Otherwise 0.0.

given_smiles=O=C(Nc1cnc(-n2nccn2)c(Cl)c1)N1C[C@@H]2CCCN2c2c(Br)cncc21 assigned_class=1.0
given_smiles=O=C(Nc1cnc(-n2nccn2)c(Cl)c1)N1CCCc2c(Br)cccc21 assigned_class=0.0
given_smiles=CN1CCN(C(=O)Nc2cnc(-n3nccn3)c(Cl)c2)c2cncc(Br)c21 assigned_class=1.0

Quick check: does C[C@@H]1CN(C(=O)Nc2cnc(-n3nccn3)c(Cl)c2)c2cncc(Br)c2N1C have IC50 under 4 µM? 1.0

And what about the compound CC1(C)CN(C(=O)Nc2cnc(-n3nccn3)c(Cl)c2)c2cccc(Br)c2O1 ? 1.0

Another compound to check: CN1c2c(Br)cncc2N(C(=O)Nc2cnc(-n3nccn3)c(Cl)c2)CC1(C)C 1.0

----------
# Target of assay: UniProt Q9UDY8
pIC50: −log10 of the molar value.
Parameter threshold = 6. Response is true (1) when pIC50 meets or exceeds it, else false (0).

Previously resolved entries follow.
compound="O=C(Nc1cnc(-n2nccn2)c(C(F)(F)F)c1)N1CCCc2c(-c3cccnc3)cccc21 [Example 8]" target_of_assay="UniProt Q9UDY8" assigned_class="false (0)"
compound="O=C(Nc1cnc(-n2nccn2)c(Cl)c1)N1C[C@@H]2CCCN2c2c(Br)cncc21 [Example 25]" target_of_assay="UniProt Q9UDY8" assigned_class="true (1)"
compound="CC(C)C1CN(C(=O)Nc2cnc(-n3nccn3)c(Cl)c2)c2cncc(Br)c2O1 (single isomer, unassigned) [Example 48]" target_of_assay="UniProt Q9UDY8" assigned_class="true (1)"
compound="O=C(Nc1cnc(-n2nccn2)c(C(F)(F)F)c1)N1CCCc2c(-c3ccccc3)cccc21 [Example 12]" target_of_assay="UniProt Q9UDY8" assigned_class="true (1)"
compound="CC1(C)CN(C(=O)Nc2cnc(-n3nccn3)c(C(F)(F)F)c2)c2cccc(Br)c2O1 [Example 23]" target_of_assay="UniProt Q9UDY8" assigned_class="true (1)"
compound="Cc1ncc2c(c1C#N)OC(C(F)(F)F)CN2C(=O)Nc1cnc(OC(F)F)c(Cl)c1 (single isomer, unassigned) [Example 60]" target_of_assay="UniProt Q9UDY8" assigned_class="false (0)"
compound="O=C(Nc1cnc(-n2nccn2)c(Cl)c1)N1CC(C2CC2)Oc2c(Br)cncc21 (single isomer, unassigned) [Example 51]" target_of_assay="UniProt Q9UDY8" assigned_class="true (1)"
compound="CC1CN(C(=O)Nc2cnc(-n3nccn3)c(Cl)c2)c2cncc(Br)c2O1 (single isomer, unassigned) [Example 44]" target_of_assay="UniProt Q9UDY8" assigned_class="true (1)"
compound="O=C(Nc1cnc(-n2nccn2)c(Cl)c1)N1CCCc2c(C3CC3)cncc21 [Example 22]" target_of_assay="UniProt Q9UDY8" assigned_class="false (0)"
compound="Cc1ncc2c(c1Br)OC(C(F)(F)F)CN2C(=O)Nc1cnc(-n2nccn2)c(Cl)c1 (single isomer, unassigned) [Example 42]" target_of_assay="UniProt Q9UDY8" assigned_class="false (0)"

Determine whether this compound has pIC50 no lower than 6: O=C(Nc1cnc(-n2nccn2)c(Cl)c1)N1CCOc2c(Br)cncc21 [Example 21] false (0)

Please give the result for COc1cccc2c1CCCN2C(=O)Nc1cnc(-n2nccn2)c(Cl)c1 [Example 3] too. true (1)

Next compound: N#CC1CN(C(=O)Nc2cnc(-n3nccn3)c(C(F)(F)F)c2)c2cccc(Br)c2O1 (centres unmarked) [Example 6] true (1)

Input CC(C)[C@@H]1CN(C(=O)Nc2cnc(-n3nccn3)c(Cl)c2)c2cncc(Br)c2N1C [Example 35] true (1)

And what about the compound Cc1ncc2c(c1C#N)OC(C(F)(F)F)CN2C(=O)Nc1cnc(-n2nccn2)c(C(F)(F)F)c1 (single isomer, unassigned) [Example 65] ? true (1)

Same question, CC1(C)CN(C(=O)Nc2cnc(-n3nccn3)c(Cl)c2)c2cncc(Cl)c2O1 [Example 32] this time true (1)

Field entry: CC1(C#N)CN(C(=O)Nc2cnc(-n3nccn3)c(Cl)c2)c2cccc(Br)c2O1 (centres unmarked) [Example 18] true (1)

Also need O=C(Nc1cnc(-n2nccn2)c(C(F)(F)F)c1)N1CCCc2c(-c3ncco3)cccc21 [Example 9] , thanks. false (0)

Further, for C#CC1CN(C(=O)Nc2cnc(-n3nccn3)c(Cl)c2)c2cccc(Br)c2O1 (centres unmarked) [Example 20] ? true (1)
